measurement-target: galectin-3 (Homo sapiens)
Sequence (P17931 whole entry): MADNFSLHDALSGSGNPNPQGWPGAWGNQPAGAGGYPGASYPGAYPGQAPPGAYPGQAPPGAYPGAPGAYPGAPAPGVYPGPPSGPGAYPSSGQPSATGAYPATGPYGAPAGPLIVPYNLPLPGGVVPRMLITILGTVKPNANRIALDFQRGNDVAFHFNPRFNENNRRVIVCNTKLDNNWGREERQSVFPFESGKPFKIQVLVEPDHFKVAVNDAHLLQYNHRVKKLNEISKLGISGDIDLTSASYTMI
measurement-description: Competitive fluorescence polarization, galectin-3 with improved-affinity probe (as described in ref 15)
Type: binding
Parameters: made in house
condition-notes: average ± SEM
Recorded pKd, one value per entry.
Scale for pKd: -log10 of concentration given in mol/L; no unit attached.

[
  {
    "compound": "OC[C@H]1O[C@@H](S[C@@H]2O[C@H](CO)[C@H](O)[C@H](n3cc(-c4nccs4)nn3)[C@H]2O)[C@H](O)[C@@H](n2cc(-c3ccc(F)c(F)c3)nn2)[C@H]1O [compound 23]",
    "pKd": 8.74
  },
  {
    "compound": "OC[C@H]1O[C@@H](S[C@@H]2O[C@H](CO)[C@H](O)[C@H](n3cc(-c4nccs4)nn3)[C@H]2O)[C@H](O)[C@@H](n2cc(-c3ccsc3)nn2)[C@H]1O [compound 22]",
    "pKd": 7.21
  }
]

Field: next compound
Which measured pKd belongs to OC[C@H]1O[C@@H](S[C@@H]2O[C@H](CO)[C@H](O)[C@H](n3cc(-c4ncc[nH]4)nn3)[C@H]2O)[C@H](O)[C@@H](n2cc(-c3ncc[nH]3)nn2)[C@H]1O [compound 20] , tested on galectin-3 (Homo sapiens)?
6.74
